system: K. pneumoniae; assay: AK assay 384-well format, Prestwick library screening; type: cell-based, Klebsiella pneumoniae; conditions: Klebsiella pneumoniae, 3 h; planktonic K. pneumoniae; 50 μM final drug concentration; 384-well; cutoff for positive-scoring molecules 3-fold increase; read-out: AK-based Prestwick Library Screening Results: K. pneumoniae (increase in extracellular AK activity)
Where a name gives a salt, the structure may show the parent alone.
Assay Endpoint: fold induction at 50 µM
Reply: number alone, nothing else.

Some compounds with recorded fold induction at 50 µM:
INSERT INTO results (compound, val) VALUES
  ('Nc1c2c(nc3ccccc13)CCCC2 [Tacrine hydrochloride hydrate]', 0.4),
  ('CCN(CC)CCNC(=O)COc1ccc(OC)cc1 [Mefexamide hydrochloride]', 0.9),
  ('CNC(=C[N+](=O)[O-])NCCSCc1ccc(CN(C)C)o1 [Ranitidine hydrochloride]', 0.9),
  ('O=C1C(CC[S+]([O-])c2ccccc2)C(=O)N(c2ccccc2)N1c1ccccc1 (stereo not drawn)', 1),
  ('CCCCOc1cc(C(=O)NCCN(CC)CC)c2ccccc2n1', 1.1),
  ('Cc1cccc(Nc2ccccc2C(=O)O)c1C', 0.8);

According to the records, this compound CN(C)CCCN1c2ccccc2CCc2ccccc21 [Imipramine hydrochloride] displays fold induction at 50 µM of 1

Value of fold induction at 50 µM reported for the compound Cc1cnc(C(=O)NCCc2ccc(S(=O)(=O)NC(=O)NC3CCCCC3)cc2)cn1 [Glipizide] is 0.8

Form: compound = CO/N=C(\C(=O)N[C@@H]1C(=O)N2C(C(=O)O)=C(COC(C)=O)CS[C@H]12)c1csc(N)n1 [Cefotaxime sodium salt] ; fold induction at 50 µM = 5.5

Noted for CC(=O)OCC(=O)[C@@]1(O)CC[C@H]2[C@@H]3CCC4=CC(=O)CC[C@]4(C)[C@@]3(F)[C@@H](O)C[C@@]21C [Fludrocortisone acetate] : its fold induction at 50 µM reads 1

fold induction at 50 µM measured on O=C(COc1ccc(Cl)cc1)N1CCN(Cc2ccc3c(c2)OCO3)CC1 [Fipexide hydrochloride] = 1.1

The reported value for Cc1c(Cl)cccc1Nc1ccccc1C(=O)O in terms of fold induction at 50 µM is 0.8

----------
tested on: S. aureus strain USA300-0114; assay: AK assay 384-well format, Prestwick library screening; format: cell-based, Staphylococcus aureus; details: Staphylococcus aureus, USA300, 3 h; planktonic S. aureus; 50 μM final drug concentration; cutoff for positive-scoring molecules 3-fold increase; read-out: AK-based Prestwick Library Screening Results, S. aureus (increase in extracellular AK activity)
Structures can show the parent of a compound that is named as a salt.
We use 0.6 as the dividing line for fold induction at 50 µM: on or above the line is rule met, below is rule not met.

Some solved entries appear below for comparison.
INSERT INTO results (compound, assigned_label) VALUES
  ('O=C(O)c1cc(/N=N/c2ccc(S(=O)(=O)Nc3ccccn3)cc2)ccc1O', 'rule met'),
  ('O=C(/C=C/c1ccc(O)c(O)c1)O[C@@H]1C[C@](O)(C(=O)O)C[C@@H](O)[C@H]1O', 'rule not met'),
  ('CN1CCN(C(c2ccccc2)c2ccccc2)CC1 [Cyclizine hydrochloride]', 'rule met');

Q: Identify whether the reported fold induction at 50 µM of the following compound is 0.6 or greater: CCOC(=O)Oc1c(OC)cc(C(=O)O[C@@H]2C[C@@H]3CN4CCc5c([nH]c6cc(OC)ccc56)[C@H]4C[C@@H]3[C@H](C(=O)OC)[C@H]2OC)cc1OC
Ans: rule not met

Q: Would you say CCOC(=O)OC(C)OC(=O)[C@@H]1N2C(=O)[C@@H](NC(=O)[C@H](N)c3ccccc3)[C@H]2SC1(C)C (some centres unmarked) [Bacampicillin hydrochloride] shows fold induction at 50 µM at minimum 0.6?
Ans: rule not met

----------
test system: P. aeruginosa; experiment: AK assay 384-well format, Prestwick library screening; type: cell-based, Pseudomonas aeruginosa; conditions: Pseudomonas aeruginosa, 3 h; 50 μM final drug concentration; 384-well format; cutoff for positive-scoring molecules 3-fold increase; read-out: AK-based Prestwick Library Screening Results, P. aeruginosa (increase in extracellular AK activity)
Where a name gives a salt, the structure may show the parent alone.
Assay Endpoint: fold induction at 50 µM

INSERT INTO results (molecule, val) VALUES
  ('Cc1c(N)c(=O)n(-c2ccccc2)n1C', 1);

// field: fold induction at 50 µM; key: C#C[C@]1(O)CC[C@H]2[C@@H]3CCC4=Cc5oncc5C[C@]4(C)[C@H]3CC[C@@]21C ; value = 0.8

Input [H]/N=C(/N)N/C(=N/[H])NCCc1ccccc1 [Phenformin hydrochloride] . Output fold induction at 50 µM: 0.7

Consider CN(C)CCOC(C)(c1ccccc1)c1ccccn1 (centres unmarked) [Doxylamine succinate] . Its measured fold induction at 50 µM is 0.8

Quick note, fold induction at 50 µM for Nc1cc(N2CCCCC2)nc(N)[n+]1[O-] landed at 0.6

----------
fold induction at 50 µM by entry:
test system: S. aureus strain USA300-0114; assay: AK assay 384-well format, Prestwick library screening; format: cell-based, Staphylococcus aureus; details: Staphylococcus aureus, USA300, 3 h, read-out: AK-based Prestwick Library Screening Results, S. aureus (fold increase in extracellular AK activity)
Just the number, please, no unit after it.

INSERT INTO assay_data (molecule, val) VALUES
  ('C[N+]12CCC(CC1)C(OC(=O)C(O)(c1ccccc1)c1ccccc1)C2 (centres unmarked) [Clidinium bromide]', 0.9),
  ('C[n+]1ccccc1/C=N/O [Pralidoxime chloride]', 1.3),
  ('CC(C)c1cccc(C(C)C)c1O', 1.2);

The reported fold induction at 50 µM value, S. aureus strain USA300-0114, for C[C@]12CC[C@H]3C(=CCc4cc(O)ccc43)[C@@H]1CCC2=O reads 3.9

Tested system S. aureus strain USA300-0114; fold induction at 50 µM recorded for O=C(NCCNCC(O)COc1ccc(O)cc1)N1CCOCC1 (centres unmarked) [Xamoterol hemifumarate] was 1.1

----------
test system: E. coli; experiment: AK assay 384-well format, Prestwick library screening; assay type: cell-based, Escherichia coli; details: Escherichia coli, 3 h; planktonic E. coli; 50 μM final drug concentration; 384-well; cutoff for positive-scoring molecules 3-fold increase; read-out: AK-based Prestwick Library Screening Results: E. coli (increase in extracellular AK activity)
Structures can show the parent of a compound that is named as a salt.
# fold induction at 50 µM listing for each entry below
Form: value (number only, do not type unit).

Would you please look over these solved cases?
INSERT INTO results (compound, val) VALUES
  ('Nc1c2c(nc3ccccc13)CCCC2 [Tacrine hydrochloride hydrate]', 0.5),
  ('COC(=O)Nc1nc2ccc(Sc3ccccc3)cc2[nH]1 [Fenbendazole]', 0.9),
  ('CCCCOc1cc(C(=O)NCCN(CC)CC)c2ccccc2n1 [Dibucaine]', 1.3),
  ('NC(=O)N1c2ccccc2C=Cc2ccccc21 [Carbamazepine]', 1),
  ('CC[N+](CC)(CC)CCOc1cccc(OCC[N+](CC)(CC)CC)c1OCC[N+](CC)(CC)CC [Gallamine triethiodide]', 1.3),
  ('OCCN1CCN(CCCN2c3ccccc3Sc3ccc(C(F)(F)F)cc32)CC1 [Fluphenazine dihydrochloride]', 1.3),
  ('COc1ccc2c(c1OC)C(=O)O[C@@H]2[C@H]1c2c(cc3c(c2OC)OCO3)CCN1C [Noscapine]', 0.6);

Here is the next item to consider.
Form: compound = COc1cc(C(=O)NCc2ccc(OCCN(C)C)cc2)cc(OC)c1OC [Trimethobenzamide hydrochloride] ; fold induction at 50 µM = 1.2

----------
test system: E. cloacae; test: AK assay 384-well format, Prestwick library screening; format: cell-based, Enterobacter cloacae; conditions: Enterobacter cloacae, 3 h; 50 μM final drug concentration; planktonic; cutoff for positive-scoring molecules 3-fold increase; read-out: AK-based Prestwick Library Screening Results, E. cloacae (fold increase in extracellular AK activity)
Structures can show the parent of a compound that is named as a salt.
Mark criterion met only for fold induction at 50 µM values smaller than 1; exact matches and larger values are criterion not met.

Please review the entries below; each comes with its answer.
INSERT INTO measurements (molecule, assigned_label) VALUES
  ('Nc1ccc(/N=N/c2ccccc2)c(N)n1 [Phenazopyridine hydrochloride]', 'criterion not met'),
  ('CCCCOC(=O)c1ccc(N)cc1', 'criterion not met'),
  ('CC[C@@]1([C@@H]2O[C@@H]([C@H]3O[C@@](O)(CO)[C@H](C)C[C@@H]3C)C[C@@H]2C)CC[C@H]([C@]2(C)CC[C@]3(C[C@H](O)[C@@H](C)[C@@H]([C@@H](C)[C@@H](OC)[C@H](C)C(=O)O)O3)O2)O1 [Monensin sodium salt]', 'criterion not met');

Q: Here's an entry: CCn1cc(C(=O)O)c(=O)c2cnc(N3CCCC3)nc21 . Is its fold induction at 50 µM below 1?
Ans: criterion met

Q: fold induction at 50 µM under 1? Item: CC(=O)c1cc2ccccc2oc1=O
Ans: criterion not met

Q: Field: below-cutoff. Rule: recorded fold induction at 50 µM strictly less than 1. Subject: C[C@]12CC[C@@H]3c4ccc(O)cc4CC[C@H]3[C@@H]1CCC2=O
Ans: criterion not met
